Recorded values, source PubChem BioAssay.

- run-description: modulators of CIT2-GFP expression in yeast, confirmation, S. cerevisiae, GFP fusion, cherry picks, mother/daughter gates (AID 2274)
- test-settings: S. cerevisiae CIT2-GFP strain, flow cytometry, 3 h; measured here: daughter cell gate; at 10 µM; stronger effect = higher value
Recorded GFP response, % of DMSO for the following compounds
Express it in %; write the number only.

Previously resolved entries follow.
CCOC(=O)C(CC)Sc1ncnc2c1nnn2-c1ccc(F)cc1 (stereo unspecified): 97.2
COc1cc(-c2nc3ccccn3c2NCC2CCCO2)ccc1O (stereo unspecified): 108
CC(=O)Nc1ccc(NC(=O)c2oc3cc(C)c(C)cc3c2C)cc1: 99.1

Bench note: what GFP response, % of DMSO did CCc1cccc(C)c1NC(=O)CC1Oc2ccc(C)cc2NC1=O (stereo unspecified) show?
97.6

May I ask what GFP response, % of DMSO has been recorded for "O=C(Oc1oc(-c2ccco2)nc1C=Nc1ccccc1)c1ccco1" ?
108

Look at this compound and give its reported GFP response, % of DMSO. "Cc1ccc(C(=O)OCC(=O)Nc2ccccc2Sc2ccccc2)cc1C"
103

====

- run-description: RPL19A-GFP modulators, yeast TOR pathway, confirmation, cell-based, S. cerevisiae, flow cytometry, cherry picks, mother/daughter gates (AID 2270)
- test-settings: S. cerevisiae RPL19A-GFP strain, 3 h, measured here: daughter cell gate, at 10 µM, stronger effect = lower value, 100 = same GFP as DMSO wells
measurement-type: GFP response vs DMSO (%)
// units = %; emit number, no label

Solved cases below.
Cc1cccc(C(=O)Nc2ccc(O)cc2)c1: 97
O=C(NCCO)c1c(O)c2cccc3c2n(c1=O)CC3: 99.2
Cc1c(N2C(=O)/C(=C\c3ccccc3O)SC2=S)c(=O)n(-c2ccccc2)n1C: 96
Cc1ccc(S(=O)(=O)N2CCCC2C(=O)Oc2ccccc2)cc1 (stereo unspecified): 99.1
O=C(O)c1ccc2ccc3ccccc3c2c1: 94.2

Now look at this one.
Look at this molecule and give its reported GFP response vs DMSO. "Cc1c(C)c2ccc(OCC(=O)NCCCn3ccnc3)cc2oc1=O"
97.4

====

Reported GFP response vs DMSO values for a set of compounds
- run-description: RPL19A-GFP modulators, yeast TOR pathway, confirmation, cell-based, S. cerevisiae, flow cytometry, cherry picks, mother/daughter gates (AID 2270)
- test-settings: S. cerevisiae RPL19A-GFP strain, 3 h, at 10 µM, stronger effect = lower value, 100 = same GFP as DMSO wells
Your answer is read as %, so omit the unit and give the number.

CCOC(=O)COc1c(Cl)cc(/C=C2\N=C(C)OC2=O)cc1OC: 105

Any idea what GFP response vs DMSO was measured for "Cc1cc(O)c(C(=O)/C=C/c2ccccc2O)c(=O)o1" ?
101

Look at this compound and give its reported GFP response vs DMSO. "O=C(Nc1cccc(O)c1)c1ccccc1"
94.6

GFP response vs DMSO lookup needed for "CC(C)Oc1ccc(C(=O)/C=C2/C(=O)Nc3ccccc32)cc1" , thanks.
88.2

Quick one: GFP response vs DMSO for "CCn1c(=O)c(C(=O)NCCCO)c(O)c2ccccc21" ?
102

Item "Oc1c(CN2CCN(c3ccc(F)cc3)CC2)cc(Cl)c2cccnc12" has what recorded GFP response vs DMSO?
101

Which measured GFP response vs DMSO value corresponds to O=C(Nc1ccc(F)cc1)C1CCCN(c2cnccn2)C1 (stereo unspecified) ?
102

Reported GFP response vs DMSO for "O=C(Nc1cccc(Cl)c1N1CCCC1)c1ccc([N+](=O)[O-])o1" : what is it?
99.2

Would you mind telling me what GFP response vs DMSO value was observed for "O=C(O)c1ccn2c(C(=O)c3ccccc3)c(-c3ccccc3)cc2c1" ?
91.1

Look up GFP response vs DMSO for this compound: "CCOC(=O)CCS(=O)(=O)c1nc(-c2ccccc2)cc(C(F)(F)F)n1"
98.8

// lookup GFP response vs DMSO for "COc1ccc(CNC(=O)c2nc(S(=O)(=O)Cc3ccccc3)ncc2Cl)cc1"
102

====

- run-description: yeast TOR pathway RPL19A-GFP modulators, primary screen, cell-based, S. cerevisiae, multiplex flow cytometry (AID 1862);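 also: lower values mimic rapamycin by blocking the RPL19A rise seen in DMSO cells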
- test-settings: S. cerevisiae RPL19A-GFP strain, flow cytometry fluorescence, 3 h; at 10 µM; stronger effect = lower value
Inconclusive results are not listed.
// percent of DMSO control GFP lookup, one value per entry
Quick note: give the figure in %, leave out the unit.

Cc1ncc([N+](=O)[O-])n1CC(C)O (centres undefined): 101
CC(=O)Nc1nc(CCC(C)C)cc2c1c(=O)oc1ccccc12: 102
CCc1cc(=O)oc2cc(C)c(CN3CCCC(C)C3)c(O)c12 (centres undefined): 102
CC(C)C[C@H](NC(=O)NC(C)C)C(=O)O: 103
Cn1nc(-c2ccccn2)nc2c(=O)n(C)c(=O)nc1-2: 103

Need percent of DMSO control GFP, item "CCOc1ccc(NC(=O)N[C@@H](CCSC)C(=O)OC)cc1"
105

Please give the measured percent of DMSO control GFP for this compound: COc1cc2nc(N3CCN(C(=O)C4COc5ccccc5O4)CC3)nc(N)c2cc1OC (centres undefined)
101

====

- run-description: AGP1-GFP expression modulators, hit retest, confirmation, cell-based, flow cytometry, S. cerevisiae, cherry picks (AID 2273);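 also: median GFP channel fluorescence over the whole cell population gate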
- test-settings: S. cerevisiae AGP1-GFP strain, 3 h, at 10 µM
The source made the active and inactive calls.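 The calls were made as follows: active = GFP response above 150% of the DMSO level; inconclusive = fewer than 70 events counted for a yeast strain; inactive = the rest.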
The following molecules are shown together with reported GFP response, % of DMSO values.

Please review the following examples before continuing.
S=c1[nH]nc(-c2ccco2)n1/N=C/C(Cl)=C/c1ccccc1: 95.6% (inactive)
Cc1ccc(/C=N/Nc2ncc(Cl)cc2Cl)s1: 81.8% (inactive)
O=S(=O)(Nc1ccc(Br)cc1)c1cccc2nonc12: 93.8% (inactive)
O=c1[nH]n(Cc2ccccc2)c2ccccc12: 98.7% (inactive)
CCCCc1[nH]nc2c1C1(C(=O)N(CC)c3ccccc31)C(C#N)=C(N)O2 (stereo not drawn): 106% (inactive)
O=C(c1cccc(COCC(F)(F)C(F)F)c1)N1CCN(c2ccccc2)CC1: 102% (inactive)
NC(=O)c1ccc(Oc2ccc(-c3nnco3)cc2)c([N+](=O)[O-])c1: 98.7% (inactive)
O=C(/C=C/c1ccccn1)c1cc(Br)ccc1O: 102% (inactive)
CC(=O)Nc1ccc(NC(=O)c2oc3cc(C)c(C)cc3c2C)cc1: 102% (inactive)
COc1cc(NC(=O)c2cc3ccccc3o2)ccc1NC(=O)c1ccco1: 94.1% (inactive)

# query: GFP response, % of DMSO of entry "COC(=O)c1ccc(C2Nc3cccc4cccc(c34)N2)cc1"
92.8% (inactive)

So what's the measured GFP response, % of DMSO for this one? "COc1ccc(C(=O)/C=C/c2ccccc2C(F)(F)F)cc1"
99.7% (inactive)

Could you tell me which GFP response, % of DMSO is on file for "O=C(Nc1nnc(-c2ccccc2Cl)o1)c1ccc(S(=O)(=O)N2CCCCCC2)cc1" ?
95.1% (inactive)

I have this molecule here, "COC(=O)c1ccc(CS(=O)(=O)c2ccc(F)cc2)o1" , and I need its recorded GFP response, % of DMSO.
102% (inactive)

Consider the molecule shown here: "COc1ccc(-c2cc3cc(C(=O)O)ccn3c2C(=O)c2ccccc2)cc1" What is its recorded GFP response, % of DMSO?
98.3% (inactive)

Bench note: what GFP response, % of DMSO did "O=C1c2cccc3cccc(c23)C(=O)N1c1cccnc1" show?
98.7% (inactive)

Which GFP response, % of DMSO value belongs to CN1CCN(C(c2ccc(C(F)(F)F)cc2)c2ccc3cccnc3c2O)CC1 (stereo not drawn) ?
87.4% (inactive)

Which value of GFP response, % of DMSO has been reported for CCCc1[nH]nc2c1C(c1ccc(OCCN3CCOCC3)c(OC)c1)C(C#N)=C(N)O2 (stereo not drawn) in the records?
93.9% (inactive)

Fill in: GFP response, % of DMSO of "Cc1ccc(-c2nn(C(C)(C)C)c3ncnc(N)c23)cc1" is ___
95.7% (inactive)

Which GFP response, % of DMSO is reported for this molecule? "O=C1c2ccsc2SCCN1Cc1ccccc1Cl"
97.5% (inactive)

Would you kindly share the measured GFP response, % of DMSO for "CCc1ccc(OCC(=O)NNC(=S)NC(=O)C2CC2)c(Br)c1" ?
90.5% (inactive)

Which GFP response, % of DMSO is listed for "COc1ccc2cc(-c3cc(C(=O)O)c4ccccc4n3)ccc2c1" ?
96.5% (inactive)

Could you tell me which GFP response, % of DMSO is on file for COc1ccc(-c2nc3cc(C)ccn3c2NCC2CCCO2)cc1OC (stereo not drawn) ?
104% (inactive)

====

- run-description: modulators of CIT2-GFP expression in yeast, confirmation, S. cerevisiae, GFP fusion, cherry picks, mother/daughter gates (AID 2274)
- test-settings: S. cerevisiae CIT2-GFP strain, flow cytometry, 3 h; measured here: daughter cell gate; at 10 µM; stronger effect = higher value
GFP response, % of DMSO values, listed per item
Answer with a number only, understood to be in %.

Dear colleague, I am looking for the recorded GFP response, % of DMSO of the following compound: "O=C(N/N=C\c1ccc(F)cc1)c1cc(OCC(F)(F)F)ccc1OCC(F)(F)F"
106

Reported GFP response, % of DMSO for "CCN(CC)N=Nc1[nH]nc2nc(C)cc(C)c12" : what is it?
123

Dear colleague, I am looking for the recorded GFP response, % of DMSO of the following compound: "O=C(O/N=C(\c1ccccc1)c1ccncc1)c1ccccc1Cl"
69.2

Using the record for "O=C1c2ccsc2SCCN1Cc1cccc(Cl)c1" , report its GFP response, % of DMSO.
99.1

Dear colleague, I am looking for the recorded GFP response, % of DMSO of the following compound: "S=C(Nc1ccc(Cl)cc1)Nc1ccc2cn[nH]c2c1"
100

For "Cc1ccc(C(=O)/C=C/C(=O)c2ccc(C)cc2)cc1" , what is its reported GFP response, % of DMSO?
100

Value lookup for GFP response, % of DMSO; key = "CCN(CC)Cc1c(O)ccc2c(C)c(CC(=O)OC)c(=O)oc12"
99.2

Name the recorded GFP response, % of DMSO for "CCOC(=O)CSC1=NC(=O)/C(=C/c2ccc(OC)cc2)S1" .
79.4

Give the measured GFP response, % of DMSO of CCCc1[nH]nc2c1C(c1ccc(Br)s1)C(C#N)=C(N)O2 (stereo unspecified) .
101

I am curious: what GFP response, % of DMSO value has been reported for "Nc1nc2c(ncn2COCCO)c(=O)[nH]1" ?
104
